Test system: Jurkat clon E6-1 leukemia
Assay: MTT in vitro cytotoxicity, Jurkat
Type: cell-based
Conditions: Homo sapiens, Jurkat cells, concentrations until 100 µM, incubation until 72 h
Excerpt: IC50 is the compound concentration at which 50% of a specific cell type die in a standardized assay, and thus a measure of cytotoxicity. Jurkat is a human leukaemia T cell line, GLC-4 is a human small-cell lung-carcinoma cell line and NIH-3T3 is a rat non-cancerous cell line. [drawing 3] These compounds have been tested in a greater number of different cell lines. IC50 is the compound concentration at which 50% of a specific cell type die in a standardized assay, and thus a measure of cytotoxicity. […]
Each item that follows carries a reported IC50.

Sample records with IC50:
compound="O=C(O)c1c2cc(Br)ccc2nc2c1[nH]c1ccccc12 [IIc]" measvalue="> 25 µM"
compound="CN(CCCNC(=O)c1c2ccccc2nc2c1[nH]c1ccccc12)CCCNC(=O)c1c2cc(F)ccc2nc2c1[nH]c1ccccc12 [IIIf]" measvalue="0.2 µM"
compound="CN(CCCNC(=O)c1c2cc(F)ccc2nc2c1[nH]c1ccccc12)CCCNC(=O)c1c2cc(F)ccc2nc2c1[nH]c1ccccc12 [IIIb]" measvalue="0.5 µM"

Next, consider the following compound.
Task: Tell me the measured IC50 of O=C(O)c1c2cc(Cl)ccc2nc2c1[nH]c1ccccc12 [IIa] , please.
Output: > 25 µM
